Values were extracted from patent US8124744B2.

# Test system: Staphylococcus aureus ATCC29213
quantity kind: MIC

Q) GET /values?readout=MIC&item= CC[C@H]1OC(=O)[C@H](C)[C@@H](O[C@H]2C[C@@](C)(OC)[C@@H](OC(C)=O)[C@H](C)O2)[C@H](C)[C@@H](O[C@@H]2O[C@H](C)C[C@@H](N3CC[C@H](O)C3)[C@@H]2N(C)C)[C@@](C)(OC)C[C@@H](C)C(=O)[C@H](C)[C@@H](O)[C@]1(C)O
A) > 128 µg/mL

Q) Next record, please: CC[C@H]1OC(=O)[C@H](C)C(=O)[C@H](C)[C@@H](O[C@@H]2O[C@H](C)C[C@@H](N3CCOCC3)[C@@H]2N(C)C)[C@@](C)(OC)C[C@@H](C)C(=O)[C@H](C)[C@H]2N(CCCCn3cnc(-c4cccnc4)c3)C(=O)O[C@]12C
A) > 128 µg/mL

====

As an illustration, consider measured MIC for compounds on Staphylococcus aureus ATCC29213.

Q) GET /values?readout=MIC&item= CC[C@H]1OC(=O)[C@H](C)[C@@H](O[C@H]2C[C@@](C)(OC)[C@@H](OC(C)=O)[C@H](C)O2)[C@H](C)[C@@H](O[C@@H]2O[C@H](C)C[C@@H](NC)[C@@H]2N(C)C)[C@@](C)(OC)C[C@@H](C)C(=O)[C@H](C)[C@@H](O)[C@]1(C)O [Example 174]
A) > 128 µg/mL

Q) Next record, please: CC[C@H]1OC(=O)[C@H](C)[C@@H](O[C@H]2C[C@@](C)(OC)[C@@H](O)[C@H](C)O2)[C@H](C)[C@@H](O[C@@H]2O[C@H](C)C[C@@H](N3CCOCC3)[C@@H]2N(C)C)[C@@](C)(OC)C[C@@H](C)C(=O)[C@H](C)[C@@H](O)[C@]1(C)O [Example 178]
A) > 128 µg/mL

====

As an illustration, consider measured MIC for compounds on Staphylococcus aureus ATCC29213.

Q) GET /values?readout=MIC&item= CC[C@H]1OC(=O)[C@H](C)[C@@H](O[C@H]2C[C@@](C)(OC)[C@@H](O)[C@H](C)O2)[C@H](C)[C@@H](O[C@@H]2O[C@H](C)C[C@H](N)[C@H]2OC)[C@@](C)(OC)C[C@@H](C)C(=O)[C@H](C)[C@@H](O)[C@]1(C)O
A) > 128 µg/mL

Q) Next record, please: CC[C@H]1OC(=O)[C@H](C)[C@@H](O[C@H]2C[C@@](C)(OC)[C@@H](O)[C@H](C)O2)[C@H](C)[C@@H](O[C@@H]2O[C@H](C)C[C@@H](N(C)CCc3ccccc3)[C@@H]2N(C)C)[C@@](C)(OC)C[C@@H](C)C(=O)[C@H](C)[C@@H](O)[C@]1(C)O
A) > 128 µg/mL

Q) Next record, please: CC[C@H]1OC(=O)[C@H](C)[C@@H](O[C@H]2C[C@@](C)(OC)[C@@H](O)[C@H](C)O2)[C@H](C)[C@@H](O[C@@H]2O[C@H](C)C[C@@H](N(C)Cc3ccccn3)[C@@H]2N(C)C)[C@@](C)(OC)C[C@@H](C)C(=O)[C@H](C)[C@@H](O)[C@]1(C)O
A) > 128 µg/mL

Q) Next record, please: CC[C@H]1OC(=O)[C@H](C)[C@@H](O[C@H]2C[C@@](C)(OC)[C@@H](O)[C@H](C)O2)[C@H](C)[C@@H](O[C@@H]2O[C@H](C)C[C@H](N(C)C)[C@H]2OCCCc2ccccc2)[C@@](C)(OC)C[C@@H](C)C(=O)[C@H](C)[C@@H](O)[C@]1(C)O
A) > 64 µg/mL

====

# Test system: Staphylococcus aureus ATCC29213
quantity kind: MIC

Q) GET /values?readout=MIC&item= CC[C@H]1OC(=O)[C@H](C)[C@@H](O[C@H]2C[C@@](C)(OC)[C@@H](OC(C)=O)[C@H](C)O2)[C@H](C)[C@@H](O[C@@H]2O[C@H](C)C[C@@H](N(C)Cc3ccccc3)[C@@H]2N(C)C)[C@@](C)(OC)C[C@@H](C)C(=O)[C@H](C)[C@@H](O)[C@]1(C)O
A) > 128 µg/mL

Q) Next record, please: CCO[C@H]1[C@H](O[C@@H]2[C@@H](C)[C@H](O[C@@H]3C[C@@](C)(OC)[C@@H](O)[C@H](C)O3)[C@@H](C)C(=O)O[C@H](CC)[C@@](C)(O)[C@H](O)[C@@H](C)C(=O)[C@H](C)C[C@]2(C)OC)O[C@H](C)C[C@@H]1N(C)C
A) > 128 µg/mL

Q) Next record, please: CC[C@H]1OC(=O)[C@H](C)[C@@H](O[C@H]2C[C@@](C)(OC)[C@@H](OC(C)=O)[C@H](C)O2)[C@H](C)[C@@H](O[C@@H]2O[C@H](C)C[C@H](N(C)C)[C@H]2OC)[C@@](C)(OC)C[C@@H](C)[C@H](OC(=O)CCN(C)C)[C@H](C)[C@@H](O)[C@]1(C)O
A) > 128 µg/mL

Q) Next record, please: CC[C@H]1OC(=O)[C@H](C)[C@@H](O[C@H]2C[C@@](C)(OC)[C@@H](O)[C@H](C)O2)[C@H](C)[C@@H](O[C@@H]2O[C@H](C)C[C@@H](NC)[C@@H]2N(C)C)[C@@](C)(OC)C[C@@H](C)C(=O)[C@H](C)[C@@H](O)[C@]1(C)O
A) 128 µg/mL

Q) Next record, please: CC[C@H]1OC(=O)[C@H](C)[C@@H](OC(C)=O)[C@H](C)[C@@H](O[C@@H]2O[C@H](C)C[C@@H](N3CCOCC3)[C@@H]2N(C)C)[C@@](C)(OC)C[C@@H](C)C(=O)[C@H](C)[C@@H](O)[C@]1(C)O
A) > 128 µg/mL

Q) Next record, please: CC[C@H]1OC(=O)[C@H](C)[C@@H](O[C@H]2C[C@@](C)(OC)[C@@H](O)[C@H](C)O2)[C@H](C)[C@@H](O[C@@H]2O[C@H](C)C[C@@H](N(C)CCO)[C@@H]2N(C)C)[C@@](C)(OC)C[C@@H](C)C(=O)[C@H](C)[C@@H](O)[C@]1(C)O
A) > 128 µg/mL

Q) Next record, please: CC[C@H]1OC(=O)[C@H](C)[C@@H](O[C@H]2C[C@@](C)(OC)[C@@H](OC(C)=O)[C@H](C)O2)[C@H](C)[C@@H](O[C@@H]2O[C@H](C)C[C@@H](N(C)Cc3ccccn3)[C@@H]2N(C)C)[C@@](C)(OC)C[C@@H](C)C(=O)[C@H](C)[C@@H](O)[C@]1(C)O
A) 128 µg/mL

Q) Next record, please: CC[C@H]1OC(=O)[C@H](C)[C@@H](O[C@H]2C[C@@](C)(OC)[C@@H](O)[C@H](C)O2)[C@H](C)[C@@H](O[C@@H]2O[C@H](C)C[C@@H](N3CCOCC3)[C@@H]2N(C)CCN(C)C)[C@@](C)(OC)C[C@@H](C)C(=O)[C@H](C)[C@@H](O)[C@]1(C)O
A) > 128 µg/mL

Q) Next record, please: CC[C@H]1OC(=O)[C@H](C)[C@@H](O[C@H]2C[C@@](C)(OC)[C@@H](O)[C@H](C)O2)[C@H](C)[C@@H](O[C@@H]2O[C@H](C)C[C@H](N(C)C)[C@H]2O)[C@](C)(OC)C[C@@H](C)C(=O)[C@H](C)[C@@H](O)[C@]1(C)O [Comparative Agent 1, 6-O-methylerythromycin A, reference compound]
A) 0.25 µg/mL

Q) Next record, please: CC[C@H]1OC(=O)[C@H](C)[C@@H](O[C@H]2C[C@@](C)(OC)[C@@H](OC(C)=O)[C@H](C)O2)[C@H](C)[C@@H](O[C@@H]2O[C@H](C)C[C@@H](N3CCOCC3)[C@@H]2N(C)C)[C@@](C)(OC(C)=O)C[C@@H](C)CN(C)[C@H](C)[C@@H](OC(C)=O)[C@]1(C)O
A) > 128 µg/mL

Q) Next record, please: CC[C@H]1OC(=O)[C@H](C)[C@@H](O[C@H]2C[C@@](C)(OC)[C@@H](O)[C@H](C)O2)[C@H](C)[C@@H](O[C@@H]2O[C@H](C)C[C@@H](N(C)Cc3cccnc3)[C@@H]2N(C)C)[C@@](C)(OC)C[C@@H](C)C(=O)[C@H](C)[C@@H](O)[C@]1(C)O
A) > 128 µg/mL

Q) Next record, please: CC[C@H]1OC(=O)[C@H](C)[C@@H](O[C@H]2C[C@@](C)(OC)[C@@H](O)[C@H](C)O2)[C@H](C)[C@@H](O[C@@H]2O[C@H](C)C[C@H](N(C)C)[C@H]2OCCCNS(C)(=O)=O)[C@@](C)(OC)C[C@@H](C)C(=O)[C@H](C)[C@@H](O)[C@]1(C)O
A) > 128 µg/mL

Q) Next record, please: CC[C@H]1OC(=O)[C@H](C)[C@@H](O[C@H]2C[C@@](C)(OC)[C@@H](OC(C)=O)[C@H](C)O2)[C@H](C)[C@@H](O[C@@H]2O[C@H](C)C[C@@H](N3CCOCC3)[C@@H]2N(C)CCN(C)C)[C@@](C)(OC)C[C@@H](C)C(=O)[C@H](C)[C@@H](O)[C@]1(C)O
A) > 128 µg/mL
